- Test system: Zika virus NS2B-NS3 protease
- Procedure Summary: Primary screen GU AMC qHTS for Zika virus inhibitors (AID 1347154);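 further: 0% = no-inhibitor control and -100% = no-enzyme control; nearly all actives have a fitted effect of over 70% in size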
- Condition Notes: Zika NS2B-NS3 unlinked protease, AMC fluorogenic substrate; series mostly up to 54.1 µM
Inconclusive results are not listed. Active and inactive are the calls of the source. The call rests on the fitted dose curve; in most records, active means well fitted inhibition curve with a large enough effect; inconclusive means small, poorly fitted or top-dose-only effect; inactive means flat fitted curve, though single readings scatter. Where a SMILES comes first, the peptide text is derived from it.
Measured Attribute: activity change, negative = inhibition

1. COC(=O)/C=C\C(=O)N[C@@H]1CC[C@@]2(O)[C@H]3Cc4ccc(O)c5c4[C@@]2(CCN3CC2CC2)[C@@H]1O5: inactive
2. COc1ccc(-n2nc(C(F)(F)F)cc2-c2ccc(Cl)cc2)cc1: inactive
3. COc1ccc2[nH]cc(C3=CCNCC3)c2c1: inactive
4. Cc1ccc2c(c1)Cc1c(C(=O)NN3CCCCC3)nn(-c3ccc(Cl)cc3Cl)c1-2: inactive
5. CN(C)Cc1c[nH]c2ccccc12: inactive
6. c1ccc(CCCCN2CCC(c3ccccc3)CC2)cc1: inactive
7. CC(C)[C@@]1(NC(=O)[C@H]2CC3c4cccc5[nH]cc(c45)C[C@H]3N(C)C2)O[C@@]2(O)C3CCCN3C(=O)[C@@H](Cc3ccccc3)N2C1=O (stereo not given in full): inactive
8. N#CC(C#N)=Cc1cc(O)c(O)c([N+](=O)[O-])c1: inactive
9. CC[C@H](C)[C@H](NC(=O)[C@H](CCCN=C(N)N)NC(=O)[C@H](CCCN=C(N)N)NC(=O)[C@H](CC(C)C)NC(=O)[C@H](Cc1ccccc1)NC(=O)CNC(=O)CNC(=O)[C@@H](N)Cc1ccc(O)cc1)C(=O)O: 10.8% [at 6.83 µM] (inactive)
10. CCC(Sc1ccccc1)C(=O)OC1CC2CCC(C1)N2C (stereo not given): inactive
11. CCCCC[C@@H](/C=C/C=C\C/C=C\C/C=C\CCCC(=O)O)OO: 15.4% [at 0.59 µM] (inactive)
12. CC(C)(O)C1O[C@H]2CC[C@@]3(C)[C@@](O)(CC[C@H]4Cc5c([nH]c6ccccc56)[C@@]43C)C2=CC1=O (stereo not given in full): inactive
13. OC12C3C4CC5C6C4C1C6C(C53)N2CCc1cccc(F)c1 (stereo not given): inactive
14. CC(C)(C)NC[C@H](O)COc1cccc2[nH]c(C#N)cc12: inactive
15. C[C@@H](Cc1ccc(OCC(=O)O)cc1)NC[C@H](O)c1cccc(Cl)c1: inactive
16. C=CCN1CC[C@]23c4c5ccc(O)c4O[C@@H]2C(=O)CC[C@]3(O)[C@H]1C5: inactive
17. NC(=O)[C@@H]1CCCN1C(=O)[C@H](Cc1ccccc1)NC(=O)[C@@H]1CCCN1C(=O)[C@@H](N)Cc1ccc(O)cc1 (H-YPFP-NH2): 12.8% [at 6.83 µM] (inactive)
18. CNCC(N)C(=O)O (stereo not given): inactive
19. CCCCC/C=C\C[C@@H](/C=C/C=C\C/C=C\CCCC(=O)O)OO: 11.4% [at 0.59 µM] (inactive)
20. CC(C)NC[C@H](O)c1ccc(N)c(C#N)c1: inactive
21. COc1ccc(C(=O)O[C@H]2CC[C@@]3(C)C4CCC5[C@]6(O)C[C@H](O)[C@@]7(O)C(CN8C[C@@H](C)CC[C@H]8[C@@]7(C)O)[C@]6(O)C[C@@]53O[C@@]42O)cc1OC (stereo not given in full): inactive
22. CSCC[C@H](NC(=O)[C@H](Cc1ccccc1)NC(=O)CNC(=O)CNC(=O)[C@@H](N)Cc1ccc(O)cc1)C(=O)O: -0.9% [at 6.83 µM] (inactive)
23. COc1ccc2c(CCN)c[nH]c2c1: inactive
24. O=C1CC[C@@]2(O)[C@H]3Cc4ccc(O)c5c4C2(CCN3CC2CC2)[C@H]1O5: inactive
25. C[C@H]1CCC/C=C/C2C[C@H](O)C[C@H]2[C@H](O)/C=C/C(=O)O1 (stereo not given in full): inactive
26. C=CCN1CCC2(C)c3cc(O)ccc3CC1C2C (stereo not given): inactive
27. NCCc1ccccc1: inactive
28. C[C@](N)(CCP(=O)(O)O)C(=O)O: inactive
29. COC(C/C=C/C=C/CC/C=C\CC(C)/C=C\C(=C/C(=O)O)CC(=O)O)/C(C)=C\C=C(/C)C(=O)O (stereo not given): 8.89% [at 6.83 µM] (inactive)
30. CCCN(CCC)[C@@H]1CCc2c(OC)cccc2[C@@H]1C: inactive

This collection of values is drawn from PubChem BioAssay (NCATS).
